Reported Ki on Adenosine receptor A1 (Rattus norvegicus, UniProt P25099) for assorted compounds, compiled from publications.
Sequence (P25099 whole entry): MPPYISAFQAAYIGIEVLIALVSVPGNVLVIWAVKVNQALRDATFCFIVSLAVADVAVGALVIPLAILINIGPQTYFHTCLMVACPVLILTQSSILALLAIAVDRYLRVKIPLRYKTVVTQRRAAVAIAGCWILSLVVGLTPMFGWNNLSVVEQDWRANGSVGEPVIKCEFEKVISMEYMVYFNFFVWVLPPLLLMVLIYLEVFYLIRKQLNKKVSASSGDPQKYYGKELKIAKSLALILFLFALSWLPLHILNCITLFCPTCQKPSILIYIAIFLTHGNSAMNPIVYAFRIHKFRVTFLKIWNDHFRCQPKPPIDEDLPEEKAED
measurementLabel: Ki (µM)

INSERT INTO results (smilestext, targetofassay, quantitativereadout) VALUES
  ('OCCn1cnc2c(NC3CCCC3)ncnc21', 'Adenosine receptor A1 (Rattus norvegicus, UniProt P25099)', 3.3);

I. CCn1cnc2c(NC3CCCCC3)ncnc21
II. CCn1c(=O)c2nc[nH]c2n(C)c1=O
III. Cn1cnc2c(Nc3ccccc3)ncnc21
IV. CCCn1c(=O)c2[nH]c(-c3ccc(Cl)cc3N)nc2n(CCC)c1=O
// query Hey, can you sort those compounds up there by Ki, smallest first? Reply with the labels, ordered as the question asks.
// result IV, I, III, II
